- protocol text: Volume of distribution in Sprague-Dawley rat at 3 mg/kg, iv
- Assay type: ADME, organism-based
- Set-up: dose 3 mg/kg, route intravenous
- reported conditions: in vivo, read-out: Vdss
observed property: Vd (L/kg)

P = CC(C)C[C@@H](C=O)NC(=O)[C@@H](NS(=O)(=O)c1ccc(F)cc1)C(C)C
Q = CC(C)C[C@H](NC(=S)Nc1ccccc1)C(=O)N[C@H]1CCOC1O (some centres not stated)
Please choose the item with the lower Vd value from this pair: P and Q Respond using the label that marks the chosen record. Q
(Q: 2.3 L/kg, P: 6.1 L/kg)

###

- experimental system: Calpain-1 catalytic subunit (Homo sapiens, UniProt P07384)
- Sequence (P07384 whole entry): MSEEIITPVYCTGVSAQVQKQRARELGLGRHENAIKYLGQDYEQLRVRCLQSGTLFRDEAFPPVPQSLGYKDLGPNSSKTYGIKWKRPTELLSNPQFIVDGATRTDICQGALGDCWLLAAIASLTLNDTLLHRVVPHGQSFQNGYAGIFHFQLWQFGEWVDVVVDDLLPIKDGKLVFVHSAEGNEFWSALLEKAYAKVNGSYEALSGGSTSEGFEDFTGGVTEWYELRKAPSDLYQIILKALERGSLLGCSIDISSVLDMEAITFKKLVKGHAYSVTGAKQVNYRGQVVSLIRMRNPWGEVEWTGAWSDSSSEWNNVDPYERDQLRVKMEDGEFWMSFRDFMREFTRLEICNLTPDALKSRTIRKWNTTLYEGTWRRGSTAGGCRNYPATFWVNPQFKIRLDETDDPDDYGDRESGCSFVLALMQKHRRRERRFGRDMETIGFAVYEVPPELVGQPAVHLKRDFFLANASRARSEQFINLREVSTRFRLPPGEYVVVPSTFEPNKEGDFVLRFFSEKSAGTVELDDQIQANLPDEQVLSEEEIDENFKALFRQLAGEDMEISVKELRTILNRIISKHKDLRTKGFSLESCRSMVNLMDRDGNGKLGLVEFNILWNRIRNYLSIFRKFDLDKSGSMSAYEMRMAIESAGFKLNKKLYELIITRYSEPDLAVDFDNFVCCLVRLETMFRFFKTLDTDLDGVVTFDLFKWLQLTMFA
- protocol text: Inhibition of human erythrocyte mu calpain
pIC50: −log10 of the molar value.
observed property: pIC50

1 = CC(C)[C@H](NS(=O)(=O)c1ccc(F)cc1)C(=O)N[C@H]1CCOC1O (stereo partly drawn)
2 = CC(C)C[C@H](NC(=S)Nc1ccccc1)C(=O)N[C@H]1CCOC1O (stereo partly drawn)
Endpoint returns the identifier whose pIC50 is numerically larger, either 1 or 2 . Respond using the label that marks the chosen record. 2
(2: 7.07, 1: 6.06)
